Target: Human Factor XIIa (Homo sapiens, UniProt P00748)
Construct: purchased Enzyme Research Laboratories
Assay: Factor XIIa inhibitory activity in vitro (fluorogenic substrate H-DPro-Phe-Arg-AFC)
Type: biochemical
Conditions: 25° C., class symbols, read-out: Human FXIIa IC50
test readout: IC50

Below are worked cases with known answers.
>  <input smiles>
Nc1nccc2cc(CNC(=O)C3(NC(=O)[C@H](N)CCc4ccccc4)CC3)ccc12

>  <IC50>
0.28 to 1 µM

$$$$
>  <input smiles>
CC(C)N1CCC[C@@H]1C(=O)N[C@@H](Cc1ccc(F)c(F)c1)C(=O)NCc1cccc2[nH]ccc12

>  <IC50>
10 to 40 µM

$$$$
>  <input smiles>
N[C@H](CCCCN1CCOCC1)C(=O)N1CC[C@H]1C(=O)NCc1ccc2[nH]cc(Cl)c2c1

>  <IC50>
3 to 10 µM

$$$$

# lookup: IC50 of `C[C@@H]1CCC[C@H](C)N1CC(=O)N[C@@H](Cc1ccc(F)c(F)c1)C(=O)NCc1ccc2c(N)noc2c1`
10 to 40 µM

Given the compound `N[C@H](CCCCn1ccnc1)C(=O)N1CC[C@H]1C(=O)NCc1ccc2[nH]cc(Cl)c2c1` , what is its reported IC50?
3 to 10 µM

Using the record for `Nc1nccc2cc(CNC(=O)[C@H](Cc3ccc(F)c(F)c3)NC(=O)CN3CCCCCC3)ccc12` , report its IC50.
1 to 3 µM

Given `CC(C)N[C@H](CCc1ccccc1)C(=O)N[C@@H](C)C(=O)NCc1ccc2c(N)nccc2c1` , state its recorded IC50.
0.28 to 1 µM

---

In this section we review reported IC50 values for a set of molecules.
Biological target: Human Factor XIIa (Homo sapiens, UniProt P00748)
Construct: purchased Enzyme Research Laboratories
Sequence (P00748 373-615 limits assumed): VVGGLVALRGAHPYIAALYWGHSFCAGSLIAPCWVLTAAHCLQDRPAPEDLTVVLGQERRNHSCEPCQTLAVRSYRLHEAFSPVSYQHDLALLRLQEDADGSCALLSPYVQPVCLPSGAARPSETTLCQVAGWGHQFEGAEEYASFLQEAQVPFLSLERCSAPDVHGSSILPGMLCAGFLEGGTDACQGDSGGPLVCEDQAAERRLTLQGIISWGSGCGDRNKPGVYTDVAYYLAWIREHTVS
Test: Factor XIIa inhibitory activity in vitro (fluorogenic substrate H-DPro-Phe-Arg-AFC)
Assay type: biochemical
Conditions: 25° C., class symbols, read-out: Human FXIIa IC50
Protocol: Determination of the % Inhibition for FXIIa Human Factor XIIa (Enzyme Research Laboratories) was incubated at 25° C. with the fluorogenic substrate H-DPro-Phe-Arg-AFC and various concentrations of the test compound. Residual enzyme activity (initial rate of reaction) was determined by measuring the change in […] at 410 nm and the IC50 value for the test compound was determined.

These recorded examples may help you get a feel for the data.
>  <input smiles>
Nc1nccc2cc(CNC(=O)[C@@H]3C[C@@H](c4ccccc4)CN3C(=O)[C@@H]3CCCN3)ccc12

>  <IC50>
1 to 3 µM

$$$$
>  <input smiles>
CC(C)n1ccc(C(=O)N[C@@H](Cc2ccc(F)c(F)c2)C(=O)NCc2ccc3c(N)nccc3c2)cc1=O

>  <IC50>
3 to 10 µM

$$$$
>  <input smiles>
CC(C)Oc1cc(C(=O)N[C@@H](Cc2ccc(F)c(F)c2)C(=O)NCc2ccc3c(N)nccc3c2)ccn1

>  <IC50>
10 to 40 µM

$$$$
>  <input smiles>
Nc1nccc2cc(CNC(=O)[C@H](Cc3ccc(F)c(F)c3)NC(=O)c3ccnnc3)ccc12

>  <IC50>
3 to 10 µM

$$$$
>  <input smiles>
CC(C)N[C@H](CCc1ccccc1)C(=O)N[C@@H](C)C(=O)NCc1ccnc(N)c1

>  <IC50>
3 to 10 µM

$$$$

Continue with the molecule presented below.
Param item = `CCn1nc(C)cc1C(=O)N[C@@H](Cc1ccc(F)c(F)c1)C(=O)NCc1ccc2c(N)nccc2c1` ; retrieve measured IC50.
10 to 40 µM
